test: RP, Waters CORTECS UPLC C18, 100 × 2.1 mm, 1.6 µm, 40 °C, 0.4 mL/min, estimated dead time 0.55 min; A: water + 0.1% formic acid, pH 3; B: acetonitrile + 0.1% formic acid, pH 3; gradient (min/%B) 0/5 1.12/5 6.41/99.5 10.01/99.5; details: stereoisomer not certain
Class assignment keyed on LC retention time, ranges bottom range: < 3 min; center range: ≥ 3 min and < 5 min; top range: ≥ 5 min

For O=C(O)Cc1c[nH]c2ccc(O)cc12 [5-HYDROXYINDOLEACETATE] , which LC retention time bin applies?
bottom range

For CNC(=O)ON=C(C)SC , which LC retention time bin applies?
center range

For O=C(NC(=O)c1ccccc1Cl)Nc1ccc(OC(F)(F)F)cc1 , which LC retention time bin applies?
top range

For CCCCCCC[n+]1cccc(S(=O)(=O)[O-])c1 , which LC retention time bin applies?
center range

For CCCCCCCCCCCCCCC[n+]1cccc(S(=O)(=O)[O-])c1 , which LC retention time bin applies?
top range

For CC(C)CCCC(C)C1CCC2C3C(=O)C=C4CC(O)CCC4(C)C3CCC12C (centres undefined) , which LC retention time bin applies?
top range

----------
assay: RP, Waters CORTECS UPLC C18, 100 × 2.1 mm, 1.6 µm, 40 °C, 0.4 mL/min, estimated dead time 0.55 min; A: water + 0.1% formic acid, pH 3; B: acetonitrile + 0.1% formic acid, pH 3; gradient (min/%B) 0/5 1.12/5 6.41/99.5 10.01/99.5; conditions: stereoisomer not certain
Where a name gives a salt, the structure may show the parent alone.
Criterion: LC retention time strictly under 3 min. Met: met. Not met: not met.

Field: below-cutoff. Rule: recorded LC retention time strictly less than 3 min. Subject: O=Cc1c[nH]c2ccccc12
not met

Field: below-cutoff. Rule: recorded LC retention time strictly less than 3 min. Subject: Cc1ccc(NC(=O)N(C)C)cc1Cl
not met

Field: below-cutoff. Rule: recorded LC retention time strictly less than 3 min. Subject: CC(=O)NCCc1c[nH]c2ccc(O)cc12
met

Field: below-cutoff. Rule: recorded LC retention time strictly less than 3 min. Subject: CC(C)OC(=O)C(C(=O)OC(C)C)=C1SCCS1
not met

Field: below-cutoff. Rule: recorded LC retention time strictly less than 3 min. Subject: CC(=NC#N)N(C)Cc1ccc(Cl)nc1
not met

Field: below-cutoff. Rule: recorded LC retention time strictly less than 3 min. Subject: COc1nc(C)nc(NC(=O)NS(=O)(=O)c2ccccc2Cl)n1
not met

Field: below-cutoff. Rule: recorded LC retention time strictly less than 3 min. Subject: Nc1cc(O)cc(C(=O)O)c1 [3-AMINO-5-HYDROXYBENZOATE]
met

Field: below-cutoff. Rule: recorded LC retention time strictly less than 3 min. Subject: CSC(C)=NOC(=O)N(C)SN(C)C(=O)ON=C(C)SC
not met

Field: below-cutoff. Rule: recorded LC retention time strictly less than 3 min. Subject: O=C(O)CCCCCCCC(O)C(O)CCCCCCO (stereo not given)
not met

Field: below-cutoff. Rule: recorded LC retention time strictly less than 3 min. Subject: COCC(=O)N(c1c(C)cccc1C)C(C)C(=O)OC (stereo not given) [Metalaxyl]
not met

Field: below-cutoff. Rule: recorded LC retention time strictly less than 3 min. Subject: NC1=C(Cl)C(=O)c2ccccc2C1=O
not met

Field: below-cutoff. Rule: recorded LC retention time strictly less than 3 min. Subject: CC(CCC(=O)NCC(=O)O)C1CCC2C3CCC4CC(O)CCC4(C)C3CCC12C (stereo not given)
not met

Field: below-cutoff. Rule: recorded LC retention time strictly less than 3 min. Subject: Cc1ccc(N=c2sccn2C)c(C)c1 [Cymiazol hydrochloride]
not met

Field: below-cutoff. Rule: recorded LC retention time strictly less than 3 min. Subject: Nc1nc2c(ncn2C2OC(CO)C(O)C2O)c(=O)[nH]1 (stereo not given)
met

Field: below-cutoff. Rule: recorded LC retention time strictly less than 3 min. Subject: CC(C)(C)C(=O)C(Oc1ccc(Cl)cc1)n1cncn1 (stereo not given)
not met

Field: below-cutoff. Rule: recorded LC retention time strictly less than 3 min. Subject: N[C@@H](Cc1ccc(O)c([N+](=O)[O-])c1)C(=O)O
met

Field: below-cutoff. Rule: recorded LC retention time strictly less than 3 min. Subject: O=C(O)c1ccc2ccccc2n1 [2-QUINOLINECARBOXYLATE]
met

Field: below-cutoff. Rule: recorded LC retention time strictly less than 3 min. Subject: Cc1cc2nc[nH]c2cc1C
met

Field: below-cutoff. Rule: recorded LC retention time strictly less than 3 min. Subject: CCCCCCCCCC[n+]1cccc(S(=O)(=O)[O-])c1
not met

Field: below-cutoff. Rule: recorded LC retention time strictly less than 3 min. Subject: O=C(O)CCCCC1SCC2NC(=O)NC21 (stereo not given)
met
